Each record here notes measured MIC.
# Tested on: Listeria monocytogenes
# Method notes: Antibacterial activity against Listeria monocytogenes 6
# Type: functional

| Compound | MIC |
| --- | --- |
| O=C1OC(c2ccc(O)c(Br)c2)(c2ccc(O)c(Br)c2)c2cccc3cccc1c23 | 5 mg/L |
| O=C1OC(c2ccc(O)cc2)(c2ccc(O)c(Br)c2)c2cccc3cccc1c23 (centres undefined) | 10 mg/L |
| O=C1OC(c2ccc(O)c(Cl)c2)(c2ccc(O)c(Cl)c2)c2cccc3cccc1c23 | 10 mg/L |
| O=C1OC(c2cc(Br)c(O)c(Br)c2)(c2cc(Br)c(O)c(Br)c2)c2cccc3cccc1c23 | 2.5 mg/L |
| O=C1OC(c2ccc(O)c(Br)c2)(c2ccc(O)c(Br)c2)c2ccc(Cl)c3cccc1c23 | 2.5 mg/L |
| O=C1OC(c2ccc(O)c(F)c2)(c2ccc(O)c(F)c2)c2ccc(Cl)c3cccc1c23 | 10 mg/L |
| O=C(O)c1cn(C2CC2)c2cc(N3CCNCC3)c(F)cc2c1=O | 2.5 mg/L |
| O=C1OC(c2ccc(O)c(F)c2)(c2ccc(O)c(F)c2)c2ccc3ccccc3c21 | 25 mg/L |
| O=C1OC(c2cc(Br)c(O)c(Br)c2)(c2cc(Br)c(O)c(Br)c2)c2c1ccc1ccccc21 | 2.5 mg/L |

====

# Tested on: Staphylococcus saprophyticus
# Method notes: Antibacterial activity against Staphylococcus saprophyticus ATCC 15305
# Type: functional
Each record here notes measured MIC.
Quantity name: MIC

| Compound | Recorded value |
| --- | --- |
| O=C1OC(c2ccc(O)c(Cl)c2)(c2ccc(O)c(Cl)c2)c2cccc3cccc1c23 | 2.5 µg/mL |
| O=C1OC(c2ccc(O)c(F)c2)(c2ccc(O)c(F)c2)c2ccc(Cl)c3cccc1c23 | 10 µg/mL |
| O=C1OC(c2ccc(O)c(F)c2)(c2ccc(O)c(F)c2)c2ccc3ccccc3c21 | 25 µg/mL |
| O=C1OC(c2ccc(O)cc2)(c2ccc(O)c(Br)c2)c2cccc3cccc1c23 (stereo not given) | 10 µg/mL |
| O=C1OC(c2cc(Br)c(O)c(Br)c2)(c2cc(Br)c(O)c(Br)c2)c2cccc3cccc1c23 | 2.5 µg/mL |

====

# Test system: Vero
# Method notes: Cytotoxicity against Vero cells measured as percent of cell growth at 25 mg/L relative to control by MTT assay
# Type: functional, Chlorocebus sabaeus
Each record here notes measured Activity.

| Query smiles | Inequality sign | Activity [%] |
| --- | --- | --- |
| O=C1OC(c2ccc(O)c(Cl)c2)(c2ccc(O)c(Cl)c2)c2cccc3cccc1c23 | = | 70 |
| O=C1OC(c2ccc(O)c(Br)c2)(c2ccc(O)c(Br)c2)c2cccc3cccc1c23 | = | 84 |
| O=C1OC(c2cc(Br)c(O)c(Br)c2)(c2cc(Br)c(O)c(Br)c2)c2c1ccc1ccccc21 | = | 100 |
| O=C1OC(c2cc(Br)c(O)c(Br)c2)(c2cc(Br)c(O)c(Br)c2)c2cccc3cccc1c23 | > | 100 |
| O=C1OC(c2ccc(O)c(Br)c2)(c2ccc(O)c(Br)c2)c2ccc(Cl)c3cccc1c23 | = | 85 |

====

# System: Escherichia coli
# Method notes: Antibacterial activity against Escherichia coli 256
# Format: functional

| Molecule | MIC |
| --- | --- |
| O=C1OC(c2cc(Br)c(O)c(Br)c2)(c2cc(Br)c(O)c(Br)c2)c2c1ccc1ccccc21 | > 25 µg/mL |
| O=C1OC(c2ccc(O)c(F)c2)(c2ccc(O)c(F)c2)c2ccc(Cl)c3cccc1c23 | > 50 µg/mL |
| O=C1OC(c2ccc(O)c(Cl)c2)(c2ccc(O)c(Cl)c2)c2cccc3cccc1c23 | > 25 µg/mL |
| O=C(O)c1cn(C2CC2)c2cc(N3CCNCC3)c(F)cc2c1=O | > 25 µg/mL |
| O=C1OC(c2ccc(O)cc2)(c2ccc(O)c(Br)c2)c2cccc3cccc1c23 (centres undefined) | > 50 µg/mL |
| O=C1OC(c2ccc(O)c(Br)c2)(c2ccc(O)c(Br)c2)c2ccc(Cl)c3cccc1c23 | > 25 µg/mL |
| O=C1OC(c2cc(Br)c(O)c(Br)c2)(c2cc(Br)c(O)c(Br)c2)c2cccc3cccc1c23 | > 50 µg/mL |
| O=C1OC(c2ccc(O)c(Br)c2)(c2ccc(O)c(Br)c2)c2cccc3cccc1c23 | > 50 µg/mL |
| O=C1OC(c2ccc(O)c(F)c2)(c2ccc(O)c(F)c2)c2ccc3ccccc3c21 | > 50 µg/mL |

The origin of these recorded values is ChEMBL document CHEMBL1137378.
